Tested on: CD8F1 mice, subcutaneous mammary adenocarcinoma, T/C%
Assay: NCI In Vivo Anticancer Drug Screen. Data for tumor model Mammary Adenocarcinoma CD8F1 (subcutaneous) in CD8F1
Conditions: endpoint: median tumor weight (est.); dose: 12.5 mg/kg/injection; schedule: Q07DX005 (ip); vehicle: Klucel (hydroxypropylcellulose) (HPC); higher = larger tumour
Records with an inconclusive call do not appear.
Reported Property: T/C

[
  {
    "Compound": "O=C1C2(Cl)C3(Cl)C4(Cl)C(Cl)(Cl)C5(Cl)[C@]3(Cl)C1(Cl)[C@]5(Cl)C24Cl (stereo not given in full)",
    "T/C": "71 % of control"
  },
  {
    "Compound": "Nc1nc(N)c2cc(CNc3ccc(C(=O)NC(CC(=O)O)CC(=O)O)cc3)ccc2n1",
    "T/C": "86 % of control"
  },
  {
    "Compound": "CCCCC(C)(C(=O)OCC)C(=O)OCC",
    "T/C": "94 % of control"
  }
]

[in] Return reported T/C. Input compound: O=S(CCCl)CCCl
[out] 91 % of control

[in] Return reported T/C. Input compound: O=C(O)c1c2c(nc3ccccc13)Cc1ccccc1-2
[out] 96 % of control

[in] Return reported T/C. Input compound: COC1C(/C=C/C(C)=O)OC2OC(C)(C)OC21 (stereo not given)
[out] 165 % of control

[in] Return reported T/C. Input compound: CCCCCCC1C=Cc2ccccc21 (stereo not given)
[out] 61 % of control

[in] Return reported T/C. Input compound: CNC(=O)OCc1c(COC(=O)NC)c(C)n(-c2ccc(OC)cc2)c1C
[out] 90 % of control

[in] Return reported T/C. Input compound: COC1C(CO)OC(n2cnc3c(=S)nc(N)[nH]c32)C1O (stereo not given)
[out] 109 % of control

[in] Return reported T/C. Input compound: C=CS(C=C)=NS(=O)(=O)c1ccc(C)cc1
[out] 89 % of control

====

System: CD8F1 mice, subcutaneous mammary adenocarcinoma, T/C%
Assay: NCI In Vivo Anticancer Drug Screen. Data for tumor model Mammary Adenocarcinoma CD8F1 (subcutaneous) in CD8F1
Conditions: endpoint: median tumor weight (est.); dose: 200.0 mg/kg/injection; schedule: Q07DX005 (ip); vehicle: suspension in saline; higher = larger tumour
Records with an inconclusive call do not appear.
Reported Property: T/C

Illustrative cases are given below, each with its answer.
[
  {
    "Compound": "CC(=O)OCC1OC(n2ccc(N)nc2=O)C(OC(C)=O)C1OC(C)=O (stereo unspecified)",
    "Target Or Test System": "CD8F1 mice, subcutaneous mammary adenocarcinoma, T/C%",
    "T/C": "88 % of control"
  },
  {
    "Compound": "C=CC(=O)NCNC(=O)C=C",
    "Target Or Test System": "CD8F1 mice, subcutaneous mammary adenocarcinoma, T/C%",
    "T/C": "32 % of control"
  },
  {
    "Compound": "N=c1ccn2c(n1)OC1C(O)C(CO)OC12 (stereo unspecified)",
    "Target Or Test System": "CD8F1 mice, subcutaneous mammary adenocarcinoma, T/C%",
    "T/C": "109 % of control"
  },
  {
    "Compound": "CC[n+]1ccc(Nc2ccc(NC(=O)c3ccc(C(=O)Nc4ccc(Nc5cc[n+](CC)c(N)n5)cc4)cc3)cc2)nc1N",
    "Target Or Test System": "CD8F1 mice, subcutaneous mammary adenocarcinoma, T/C%",
    "T/C": "20 % of control"
  },
  {
    "Compound": "Nc1ccn([C@@H](C=O)O[C@@H](C=O)CO)c(=O)n1",
    "Target Or Test System": "CD8F1 mice, subcutaneous mammary adenocarcinoma, T/C%",
    "T/C": "105 % of control"
  }
]

Turning now to a further compound:
[in] Return reported T/C. Input compound: Nc1nc2nc[nH]c2c(=O)[nH]1
[out] 73 % of control
